Target: Adrenergic receptor alpha-2 (Homo sapiens) (UniProt P08913+P18825+P18089)
Assay: Antagonist activity at adrenergic alpha 2 receptor in human brain membrane assessed as inhibition of UK14304-induced stimulation of [35S]GTPgammaS binding at 10 uM by liquid scintillation spectroscopy (reference value: 153 +/- 4%)
Format: functional, cell membranes
Settings: filed as antagonist
value type: Emax (%)
Give the value in % but do not write % after it.

Some compounds with known Emax results, for comparison:
COC1(C2=NCCN2)COc2ccccc2O1 (centres undefined) | 98
Cl.Cl.N=C(NCc1ccco1)Nc1ccc(Cc2ccc(NC3=NCCN3)cc2)cc1 | 155
CCCNC(=N)Nc1ccc(Cc2ccc(NC3=NCCN3)nc2)cn1.Cl.Cl | 127

Kindly consider the entry below.
Indicate its recorded Emax; the compound in question is `Cl.Cl.N=C(N)Nc1ccc(Cc2ccc(N=C3NCCN3)cc2)cc1`
110

----------
Target: Adrenergic receptor alpha-2 (Homo sapiens, UniProt P08913+P18825+P18089)
Sequence (P08913 whole entry): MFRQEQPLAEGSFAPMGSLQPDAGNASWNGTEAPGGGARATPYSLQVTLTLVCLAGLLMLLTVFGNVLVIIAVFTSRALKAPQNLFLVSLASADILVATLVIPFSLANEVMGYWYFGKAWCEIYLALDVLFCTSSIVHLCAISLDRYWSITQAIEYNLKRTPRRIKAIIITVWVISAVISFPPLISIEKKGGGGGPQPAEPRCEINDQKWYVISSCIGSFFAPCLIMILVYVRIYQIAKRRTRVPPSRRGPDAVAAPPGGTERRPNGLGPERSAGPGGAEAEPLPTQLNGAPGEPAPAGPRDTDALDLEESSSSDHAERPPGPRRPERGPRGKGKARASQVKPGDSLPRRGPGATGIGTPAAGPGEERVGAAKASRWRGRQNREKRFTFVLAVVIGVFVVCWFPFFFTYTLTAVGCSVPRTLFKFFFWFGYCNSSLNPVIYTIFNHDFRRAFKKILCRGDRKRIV
Sequence (P18825 whole entry): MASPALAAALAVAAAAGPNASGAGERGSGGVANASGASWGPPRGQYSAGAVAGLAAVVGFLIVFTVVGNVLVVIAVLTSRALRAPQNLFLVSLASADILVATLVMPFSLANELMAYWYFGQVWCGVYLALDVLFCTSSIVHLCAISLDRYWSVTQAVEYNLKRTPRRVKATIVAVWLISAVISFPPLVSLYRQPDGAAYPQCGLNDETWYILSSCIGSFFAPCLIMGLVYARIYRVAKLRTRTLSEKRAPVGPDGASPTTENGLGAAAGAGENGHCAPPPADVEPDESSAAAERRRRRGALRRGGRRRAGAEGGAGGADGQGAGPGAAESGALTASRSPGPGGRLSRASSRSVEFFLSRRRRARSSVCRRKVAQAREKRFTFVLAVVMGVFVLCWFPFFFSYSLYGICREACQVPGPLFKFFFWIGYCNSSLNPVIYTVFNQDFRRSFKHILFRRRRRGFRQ
Sequence (P18089 whole entry): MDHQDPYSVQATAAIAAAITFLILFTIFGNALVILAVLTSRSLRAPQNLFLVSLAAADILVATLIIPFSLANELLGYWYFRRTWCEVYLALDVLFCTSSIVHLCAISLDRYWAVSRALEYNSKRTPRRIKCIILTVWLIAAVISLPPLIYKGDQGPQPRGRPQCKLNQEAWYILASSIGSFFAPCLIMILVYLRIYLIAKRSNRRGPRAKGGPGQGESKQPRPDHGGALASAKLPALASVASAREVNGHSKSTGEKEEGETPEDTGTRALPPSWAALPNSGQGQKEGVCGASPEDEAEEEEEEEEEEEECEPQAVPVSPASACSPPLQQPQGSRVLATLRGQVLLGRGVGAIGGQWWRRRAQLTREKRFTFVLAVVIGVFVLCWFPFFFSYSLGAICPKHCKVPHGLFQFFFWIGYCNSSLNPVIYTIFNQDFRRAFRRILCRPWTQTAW
Assay: Displacement of [3H]-RX821002 from adrenergic alpha 2 receptor in human brain membrane by liquid scintillation spectroscopy
Assay type: cell membranes
value type: log10 Ki (log10 of the value in µM)
All values: log10 Ki [µM].

Examples with answers:
Cl.Cl.N=C(NCc1ccco1)Nc1ccc(CCc2ccc(NC3=NCCN3)cc2)cc1 | -0.38
Cl.Cl.N=C(NCc1ccco1)Nc1ccc(Cc2ccc(NC3=NCCN3)nc2)cc1 | -0.36
N=C(N)NC1C=C2CCCCC2=CN1 (stereo not given) | -0.78
Cl.Cl.N=C(NCc1ccco1)Nc1ccc(Cc2ccc(NC3=NCCN3)cc2)cn1 | -1.47

Turning to the following compound.
Provide one value: measured log10 Ki of `Cl.Cl.N=C(N)Nc1ccc(Cc2ccc(NC3=NCCN3)nc2)cc1`
-0.17
